assayProcedure: Plasma pharmacokinetics, naïve pooled non-compartmental analysis (days 0 and 28)
Type: in vivo, human
testContext: human; Day 0, plasma, oral SOF 400 mg + DCV 60 mg; read-out: Cmax
assayReadout: Cmax (ng/mL)

1) COC(=O)N[C@H](C(=O)N1CCC[C@H]1c1nc(-c2ccc(-c3ccc(-c4c[nH]c([C@@H]5CCCN5C(=O)[C@@H](NC(=O)OC)C(C)C)n4)cc3)cc2)c[nH]1)C(C)C [Daclatasvir, daclatasvir] | 1170

---

assayProcedure: Plasma pharmacokinetics, naïve pooled non-compartmental analysis (days 0 and 28)
Type: in vivo, human
Set-up: concentration or dose not given beside the values
testContext: human, plasma, oral, Day 0; to 8 hours for SOF, 24 hours for GS-331007 and DCV
assayReadout: AUC(0-t) (ng·h/mL)

1. COC(=O)N[C@H](C(=O)N1CCC[C@H]1c1nc(-c2ccc(-c3ccc(-c4c[nH]c([C@@H]5CCCN5C(=O)[C@@H](NC(=O)OC)C(C)C)n4)cc3)cc2)c[nH]1)C(C)C | 11400

---

assayProcedure: Plasma pharmacokinetics, naïve pooled non-compartmental analysis (days 0 and 28)
Assay type: in vivo, human
testContext: human, plasma, oral; Day 0; read-out: tmax
assayReadout: tmax (h)

1. COC(=O)N[C@H](C(=O)N1CCC[C@H]1c1nc(-c2ccc(-c3ccc(-c4c[nH]c([C@@H]5CCCN5C(=O)[C@@H](NC(=O)OC)C(C)C)n4)cc3)cc2)c[nH]1)C(C)C | 3

---

assayProcedure: Plasma pharmacokinetics, naïve pooled non-compartmental analysis (days 0 and 28)
Assay type: in vivo, human
testContext: human, in vivo; Day 0, plasma, oral SOF 400 mg + DCV 60 mg; read-out: Cmax
assayReadout: Cmax

1) CC(C)OC(=O)[C@H](C)N[P@](=O)(OC[C@H]1O[C@@H](n2ccc(=O)[nH]c2=O)[C@](C)(F)[C@@H]1O)Oc1ccccc1 | 1320 ng/mL

---

assayProcedure: Plasma drug exposure, individual non-compartmental analysis (days 0 and 28 pooled)
Assay type: in vivo, human
Design: concentration or dose not given beside the values
testContext: human, plasma, oral, 4-week cures (n=15); median (5th-95th percentile); read-out: Median AUClast
assayReadout: AUC(0-t) (ng·h/mL)

1) COC(=O)N[C@H](C(=O)N1CCC[C@H]1c1nc(-c2ccc(-c3ccc(-c4c[nH]c([C@@H]5CCCN5C(=O)[C@@H](NC(=O)OC)C(C)C)n4)cc3)cc2)c[nH]1)C(C)C [Daclatasvir, daclatasvir] | 13000

---

assayProcedure: Plasma pharmacokinetics, naïve pooled non-compartmental analysis (days 0 and 28)
Assay type: in vivo, human
testContext: human, in vivo, po, Day 0; extrapolated to infinity
Description: In addition, intensive drug level sampling was conducted in a subset of 40 participants, who were sequentially invited to join an ancillary PK study. […] In sampling schedule A, drug levels were measured at 0.5-, 2-, 4-, 6- and 24-hr post-dose; in sampling schedule B, drug levels were measured at 1-, 3-, 5-, 8- and 24-hr post-dose. Drug quantification was performed using liquid chromatography-tandem mass spectrometer at Mahidol Oxford Tropical Medicine Research Unit, Bangkok. […]
assayReadout: AUC(0-inf) (ng·h/mL)

1. CC(C)OC(=O)[C@H](C)N[P@](=O)(OC[C@H]1O[C@@H](n2ccc(=O)[nH]c2=O)[C@](C)(F)[C@@H]1O)Oc1ccccc1 [Sofosbuvir, sofosbuvir] | 1550
